# target or test system: pooled human IgG
readout kind: Enzyme Activity Endpoint Assay (purified): IgG (ng/µL)
API: value field is a number in ng/µL; no unit string.

# protein, readout unit, result
records = [
    ("PRT-123 (protein) MRNATEAYNKESPHTITSVWTKGVTPPTPEDFRYNNEDVLHAPYVANQGWYDITKTFDGKDNLLCGAATAGNMLHWWFDQNKEEIERYLKKHPEKQKIIFNNQELFDVKAAIDTKDSQTNSKLFNYFRDKAFPNLSARQLGVMPDLVLDMFINGYYLNLGKTQSTDVNRPYQDKDKRGGIFDAVFTRGDQTTLLTARHDLKNKGLNEISDLIKQELTEGKALALSHTYANVRINHVINLWGADFDAEGNLIAIYVTDSDANASIGMKKYFVGVNANGKVAISAKKIEGDNIGAQVLGLFTLSTGQDIWQKLS", "ng/µL", 0),
]

Shift focus to the following entry.
The protein PRT-249 (protein) MVTSVWTKGVTPPTNFTYGEDVLHAPYVANQGWYDITKTFNGKDDLLCGAATAGNMLHWWFDQNKEQIENYLKKHPEKQKINFNGEQMFDVKEAIDTKDSQLDSKLFDYFKEKAFPNLSTKHLGVFPDHVIDMFINGYRLSLLNHGPTPVKRGSKDPRGGIFDAVFTRGDQSKLLTNRHDFKEKTLKEISDLIKQELTEGKALGISHTYANVRINHVINLWGADFDAEGNLEAIYVTDSDSNPSIGMKKYFVGVNSSGKVAISAKEIEEDNIGAQVLGLFTLSTGQDIWNQTN showed Enzyme Activity Endpoint Assay (purified): IgG equal to 0
